Where do these numbers come from? They come from patent US20240109914A1.

tested on: tomato plants; assay: Root mass of tomato plants in the soil infectivity assay; details: 45 μM in soil, 8 weeks
PROPERTY MEASURED: Normalized root mass (relative to DMSO control)
Please reply with the number alone, leaving off any unit.

Guide cases for Normalized root mass (relative to DMSO control), answers given:
COMPOUND | RECORDED RESULT
Cc1c(-c2ccc(F)cc2)nc2sccn12 [I-13] | 1.12
Cc1c(-c2cccc(Cl)c2)nc2sccn12 [I-24] | 1.34

Shift focus to the following entry.
Query: Form field: Normalized root mass (relative to DMSO control) recorded for Cc1csc2nc(-c3ccccc3Cl)cn12 [I-29] with tomato plants (enter value)
Result: 1.14
